- EXPERIMENTAL_PROTOCOL: Antioxidant activity assessed as inhibition of linoleic acid autooxidation
- Format: physicochemical
QUANTITY_NAME: IC50 (µg/mL)

In: Which measured IC50 value corresponds to "Oc1cc(O)c2c(c1)O[C@H](c1ccc(O)c(O)c1)[C@H](O)[C@H]2c1c(O)cc2c(c1O)C[C@@H](O)[C@@H](c1ccc(O)c(O)c1)O2" ?
Out: 2.3

In: I have this compound here, "Oc1cc(O)c2c(c1)O[C@H](c1ccc(O)c(O)c1)[C@H](O)[C@H]2c1c(O)cc(O)c2c1O[C@H](c1ccc(O)c(O)c1)[C@H](O)[C@H]2c1c(O)cc(O)c2c1O[C@H](c1ccc(O)c(O)c1)[C@H](O)[C@H]2c1c(O)cc(O)c2c1O[C@H](c1ccc(O)c(O)c1)[C@H](O)C2" , and I need its recorded IC50.
Out: 2.7

a. Oc1cc(O)c2c(c1)O[C@H](c1ccc(O)c(O)c1)[C@H](O)C2 [(-)-EPICATECHIN]
b. Oc1cc(O)c2c(c1)O[C@H](c1ccc(O)c(O)c1)[C@H](O)[C@H]2c1c(O)cc(O)c2c1O[C@H](c1ccc(O)c(O)c1)[C@H](O)[C@H]2c1c(O)cc(O)c2c1O[C@H](c1ccc(O)c(O)c1)[C@H](O)C2
c. Oc1cc(O)c2c(c1)O[C@]1(c3ccc(O)c(O)c3)Oc3cc(O)c4c(c3[C@H]2[C@@H]1O[C@@H]1OC[C@@H](O)[C@H](O)[C@H]1O)O[C@H](c1ccc(O)c(O)c1)[C@H](O)C4
In: # desc sort on IC50 across 3 compounds Write the labels in rank order as requested.
Out: b, c, a
(b: 5.3 µg/mL, c: 2.2 µg/mL, a: 0.62 µg/mL)

====

- Tested on: SK-MEL-28
- EXPERIMENTAL_PROTOCOL: Cytotoxicity against human SK-MEL-28 cells assessed as growth inhibition
- Type: functional, cell-based
# reported pIC50; entries follow
Just the number, please; pIC50 means minus log10 of the concentration in mol/L.

Record excerpt, results attached:
In: API: value(readout=pIC50, system=SK-MEL-28) for record "C=C(C)[C@@H]1CC[C@]2(C(=O)O)CC[C@]3(COC(=O)c4ccccc4)[C@H](CC[C@@H]4[C@@]5(C)CC[C@H](OC(C)=O)C(C)(C)[C@@H]5CC[C@]43C)[C@@H]12"
Out: 4.49

In: Checklist item: pIC50 tested on SK-MEL-28, entry CC1(C)C(=O)[C@@H](O)C[C@@H]2C1=CC[C@@H]1[C@@]2(C)C(=O)C[C@]2(C)[C@@H]([C@@](C)(O)C(=O)CC(O)C(C)(C)O)[C@H](O)C[C@@]12C (some centres undefined) , value?
Out: 5.89

In: What measured pIC50 is associated with "C=C(C)[C@@H]1CC[C@]2(C(=O)O)CC[C@]3(C)[C@H](CC[C@@H]4[C@@]5(C)CC[C@H](OC(=O)/C=C/c6ccc(O)c(O)c6)C(C)(C)[C@@H]5CC[C@]43C)[C@@H]12" on SK-MEL-28?
Out: 4.09

Continue with the next compound.
In: Form field: pIC50 recorded for "CC(C)(O)/C=C/C(=O)[C@](C)(O)[C@H]1[C@H](O)C[C@@]2(C)[C@@H]3CC=C4[C@@H](C[C@H](O)C(=O)C4(C)C)[C@]3(C)C(=O)C[C@]12C" with SK-MEL-28 (enter value)
Out: 5.91
